# measurement_target: PcrV of P. aeruginosa strain PA103 (on TTSS-induced bacteria) (Pseudomonas aeruginosa strain PA103)
# test_details: cell-based or functional assay
measure: Efficacy (%), P3X63 cytotoxicity, MOI 12
Lab book: enter the figure in %, no units written.

Form: binder = Nanobody 257 (13F07-40GS-2B10) (VHH) EVQLVESGGGLVQAGGSLRLSCAASGNTFSTNPMYWYRQAEGKQRELVASISSRGITNYADSVRGRFSISRDNTKDTVYLQMNSLKPEDTAVYYCRLASLSSGTVYWGKGTLVTVSSGGGGSGGGGSGGGGSGGGGSGGGGSGGGGSGGGGSGGGGSEVQLVESGGGLVQPGGSLRLSCAASGSIFSINNMGWYRQAPGKQRELVTVVTSNLITTYADSVKGRFTISRDNAKNTVYLQMNSLKPEDTAVYYCNAWARSVGSVPYSQFWGQGTLVTVSS ; Efficacy (%), P3X63 cytotoxicity, MOI 12 = 100

Source: patent US20190055322A1
